Entry source: patent US8168651B2

# TESTED_ON: recombinant human CK2 (Homo sapiens (Human), UniProt P68400)
# Sequence (P68400 whole entry): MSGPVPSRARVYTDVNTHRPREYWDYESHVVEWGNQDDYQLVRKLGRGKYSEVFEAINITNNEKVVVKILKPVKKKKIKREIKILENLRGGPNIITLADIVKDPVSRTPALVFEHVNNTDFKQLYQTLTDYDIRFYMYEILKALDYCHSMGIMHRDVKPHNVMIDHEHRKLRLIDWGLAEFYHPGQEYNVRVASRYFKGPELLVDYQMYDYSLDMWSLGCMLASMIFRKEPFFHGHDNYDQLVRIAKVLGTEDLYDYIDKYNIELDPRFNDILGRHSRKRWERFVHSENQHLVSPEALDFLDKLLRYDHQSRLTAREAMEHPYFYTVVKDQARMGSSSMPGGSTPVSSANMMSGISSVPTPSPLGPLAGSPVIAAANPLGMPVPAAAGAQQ
# Sequence (P67870 whole entry partner): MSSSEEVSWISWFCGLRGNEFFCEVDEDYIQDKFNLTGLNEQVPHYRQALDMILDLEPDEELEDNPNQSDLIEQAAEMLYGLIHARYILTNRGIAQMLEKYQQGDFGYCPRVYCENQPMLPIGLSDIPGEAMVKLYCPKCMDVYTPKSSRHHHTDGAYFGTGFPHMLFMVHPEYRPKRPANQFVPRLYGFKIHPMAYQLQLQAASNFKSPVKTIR
# ASSAY_OVERVIEW: CK2 assay (cell-free, 33P-ATP filter plate)
# Format: biochemical
# SETUP_CONDITIONS: 500 nM compound, cell-free; read-out: CK2: % inh 500 nM
PROPERTY: inhibition at 0.5 µM (%)

A = Cc1cc(CNC(=O)c2cccc(Nc3nc4cc(C(=O)O)ccc4c4sccc34)c2)no1
B = Cc1noc(-c2ccc3c(c2)nc(Nc2ccccc2)c2ccncc23)n1
Between A and B , which one shows the larger inhibition at 0.5 µM value? Answer by quoting the chosen item's label.
A

a = CN(C)CCNC(=O)Cc1cccc(Nc2nc3cc(C(=O)O)ccc3c3sccc23)c1
b = CC(=O)N1CCN(C(=O)c2cccc(Nc3nc4cc(C(=O)O)ccc4c4sccc34)c2)CC1
Between a and b , which one shows the larger inhibition at 0.5 µM value? Answer by quoting the chosen item's label.
a

a = O=C(O)c1ccc2c(c1)nc(Nc1cccc(C(=O)Nc3ccccc3)c1)c1ccsc12
b = CC(C)(C)OC(=O)CCNC(=O)c1cccc(Nc2nc3cc(C(=O)O)ccc3c3sccc23)c1
Field: lower inhibition at 0.5 µM | Options: a / b Answer by quoting the chosen item's label.
a
(a: 37.7%, b: 65.5%)

P = CC(C)(C)OC(=O)CCNC(=O)c1cccc(Nc2nc3cc(-c4nnn[nH]4)ccc3c3sccc23)c1
Q = COC(=O)c1ccc2c(c1)nc(Nc1cccc(Cl)c1)c1ccncc12
R = O=C(O)c1ccc2c(c1)nc(Nc1cccc(-c3ccccc3)c1)c1ccsc12
Output the entries ranked by inhibition at 0.5 µM from maximum down to minimum. Answer with the labels in sequence, matching the requested order.
R, P, Q
